The origin of these recorded values is the supplement of paper PMC7877785.

Field: self-splicing fitness (ln). Provide a value for each of the sequences that follow.
# run description: self-splicing fitness, log relative to wild type (ln ratio); higher = more splicing; Tetrahymena group I intron in knt gene, E. coli kanamycin selection, DiMSum; sequences stand for … in CUCUCU…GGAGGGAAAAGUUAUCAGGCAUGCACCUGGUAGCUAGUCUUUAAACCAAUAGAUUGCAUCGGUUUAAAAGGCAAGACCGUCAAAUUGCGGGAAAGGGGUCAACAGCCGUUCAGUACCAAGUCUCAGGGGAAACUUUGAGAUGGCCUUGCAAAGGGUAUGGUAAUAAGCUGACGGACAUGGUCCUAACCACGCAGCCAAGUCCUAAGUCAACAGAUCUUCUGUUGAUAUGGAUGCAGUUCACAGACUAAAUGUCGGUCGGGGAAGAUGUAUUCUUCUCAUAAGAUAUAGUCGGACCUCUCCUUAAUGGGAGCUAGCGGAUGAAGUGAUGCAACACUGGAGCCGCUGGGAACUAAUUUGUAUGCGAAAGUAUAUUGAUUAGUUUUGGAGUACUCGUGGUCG;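 note: selection with 25 µg/mL kanamycin versus none on LB agar overnight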
# run conditions: 30 °C
Give the figure only, with no unit attached.

Q: Need self-splicing fitness (ln) of CCGGAGCAAUAUUACGGCGA , thanks.
A: -3.92

Q: Can you check AAUCAGCAAUAUUACGUCUU next?
A: 0.123

Q: Can you check GGUAAGCAAUAUUACGGGCU next?
A: -1.76

Q: Can you check AAGCAGCAAUAUUACGACCC next?
A: -1.78

Q: Can you check CAAUAGCAAUAUUACGAUGU next?
A: -3.19

Q: Can you check UUUCAGCAAUAUUACGCUCU next?
A: -1.2

Q: Can you check GCGGAGCAAUAUUACGCAAU next?
A: -3.51

Q: Can you check ACUAAGCAAUAUUACGCACG next?
A: -1.68

Q: Can you check UUCGAGCAAUAUUACGCGGU next?
A: -3.26

Q: Can you check UUUCAGCAAUAUUACGUAGA next?
A: -1.72

Q: Can you check CUAAAGCAAUAUUACGCGAU next?
A: -0.384

Q: Can you check GGUCAGCAAUAUUACGACGG next?
A: -0.435

Q: Can you check GGCCAGCAAUAUUACGGCCU next?
A: -3.58

Q: Can you check ACCGAGCAAUAUUACGUACC next?
A: -3.88

Q: Can you check AUGGAGCAAUAUUACGUUCG next?
A: -1.89

Q: Can you check UCGCAGCAAUAUUACGAUAG next?
A: -2.26

Q: Can you check CAUAAGCAAUAUUACGCUAG next?
A: -3.34

Q: Can you check CUGUAGCAAUAUUACGACUU next?
A: -2.12

Q: Can you check GGGUAGCAAUAUUACGAAGU next?
A: -1.74

Q: Can you check UUGUAGCAAUAUUACGACGC next?
A: -2.8

Q: Can you check UAAAAGCAAUAUUACGGUGU next?
A: -3.4

Q: Can you check GGCCAGCAAUAUUACGGACU next?
A: -2.24

Q: Can you check GCGCAGCAAUAUUACGAUAC next?
A: -1.4

Q: Can you check CAUUAGCAAUAUUACGGUAC next?
A: -1.9

Q: Can you check ACAAAGCAAUAUUACGGAUU next?
A: -2.49

Q: Can you check UCGUAGCAAUAUUACGUAGU next?
A: -3.61

Q: Can you check CUGCAGCAAUAUUACGUGAC next?
A: -0.842

Q: Can you check AUCUAGCAAUAUUACGACCC next?
A: -0.615

Q: Can you check GAAGAGCAAUAUUACGCCUU next?
A: -2.52

Q: Can you check GGGAAGCAAUAUUACGGACU next?
A: -1.99

Q: Can you check GCUCAGCAAUAUUACGUUAU next?
A: -1.08

Q: Can you check AGCAAGCAAUAUUACGAGUC next?
A: -3.5

Q: Can you check AGUAAGCAAUAUUACGCCCA next?
A: -1.19

Q: Can you check ACCCAGCAAUAUUACGUUUG next?
A: -4.2
